FYI, the data here is from the supplement of paper PMC11316812.

# Test system: MCF7;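 also: secreted proteins added to cultured cells, EdU pulse at the end, nuclei found by Hoechst imaging, EdU status from nuclear versus surrounding ring intensity ratio, PBS as neutral control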
# Protocol Notes: percentage of EdU-negative (G0-arrested) nuclei per well, 72 h; higher = more G0 arrest
# Details: protein concentration 0.225 µM; reference: sequence is the full UniProt precursor, the tested protein was the secreted form or ectodomain
Assign percentage of EdU-negative to each entry below.
Answers are plain numbers, in %.

MKFSPAHYLLPLLPALVLSTRQDYEELEKQLKEVFKERSTILRQLTKTSRELDGIKVNLQSLKNDEQSAKTDVQKLLELGQKQREEMKSLQEALQNQLKETSEKAEKHQATINFLKTEVERKSKMIRDLQNENKSLKNKLLSGNKLCGIHAEESKKIQAQLKELRYGKKDLLFKAQQLTDLEQKLAVAKNELEKAALDRESQMKAMKETVQLCLTSVFRDQPPPPLSLITSNPTRMLLPPRNIASKLPDAAAKSKPQQSASGNNESSQVESTKEGNPSTTACDSQDEGRPCSMKHKESPPSNATAETEPIPQKLQMPPCSECEVKKAPEKPLTSFEGMAAREEKIL [Q86TE4]	30.1

# percentage of EdU-negative of `MRTLTILTAVLLVALQAKAEPLQAEDDPLQAKAYEADAQEQRGANDQDFAVSFAEDASSSLRALGSTRAFTCHCRRSCYSTEYSYGTCTVMGINHRFCCL` = 26.4
